The entries below come with measured Ki values attached.
biological target: Neuropeptide Y receptor type 4 (Homo sapiens, UniProt P50391); assay: Displacement of [3H]UR-KK200 from human neuropeptide Y Y4 receptor expressed in CHO-mtAEQ cells co-expressing Gqi5 measured after 90 mins by scintillation counting analysis; type: cell-based; conditions: read-out: Ki
Sequence (P50391 whole entry): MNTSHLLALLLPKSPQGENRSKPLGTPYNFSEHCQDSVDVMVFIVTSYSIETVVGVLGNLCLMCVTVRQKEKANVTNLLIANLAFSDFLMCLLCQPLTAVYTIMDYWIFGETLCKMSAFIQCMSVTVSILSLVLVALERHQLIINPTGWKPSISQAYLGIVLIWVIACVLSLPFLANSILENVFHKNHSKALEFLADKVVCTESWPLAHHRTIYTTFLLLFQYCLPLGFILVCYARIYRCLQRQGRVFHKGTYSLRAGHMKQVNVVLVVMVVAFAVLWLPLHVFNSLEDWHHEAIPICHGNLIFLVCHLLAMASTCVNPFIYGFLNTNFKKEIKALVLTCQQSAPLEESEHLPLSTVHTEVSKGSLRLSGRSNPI
Starred links: 1 amine or outer side, 2 acyl side, 3 side chain; linkers in the order of their positions; H or OH if unused. Residues, ends and D or L forms follow the SMILES beside them. Groups on a side chain read outwards from the residue. *: point of attachment. Suc = O=C(CCC(=O)[*:2])[*:1]; NH(CH2)4NH2 = NCCCCN*; CO = O=C([*:1])[*:2]
Dear colleague, please return just the value in nM, with no unit written.

Answered examples (2):
{"molecule": "CC(C)C[C@H](NC(=O)[C@H](CCCNC(=N)NC(=O)NCCCCN)NC(=O)[C@H](Cc1c[nH]c2ccccc12)NC(=O)[C@H](CCCNC(=N)N)NC(=O)CCC(=O)O)C(=O)N[C@@H](CCCNC(=N)N)C(=O)N[C@@H](Cc1ccc(O)cc1)C(N)=O", "measured-target": "Neuropeptide Y receptor type 4 (Homo sapiens, UniProt P50391)", "recorded-endpoint": "Ki", "obs-value": 2.1}
{"molecule": "CC(C)C[C@H](NC(=O)[C@H](CCCNC(=N)N)NC(=O)[C@H](Cc1ccc(O)cc1)NC(=O)[C@H](CCCNC(=N)N)NC(=O)CCC(=O)O)C(=O)N[C@@H](CCCNC(=N)NC(=O)NCCCN)C(=O)N[C@@H](Cc1ccc(O)cc1)C(N)=O", "measured-target": "Neuropeptide Y receptor type 4 (Homo sapiens, UniProt P50391)", "recorded-endpoint": "Ki", "obs-value": 53}

// lookup Ki for CC(C)C[C@@H]1NC(=O)[C@H](CCCNC(=N)N)NC(=O)[C@H](Cc2ccc(O)cc2)NC(=O)[C@H](CCCNC(=N)N)NC(=O)CCC(=O)NCCCNC(=O)NC(=N)NCCC[C@@H](C(=O)N[C@@H](Cc2ccc(O)cc2)C(N)=O)NC1=O 140

So what does the record say about Ki for CC(C)C[C@H](NC(=O)[C@H](CCCNC(=N)NC(=O)NCCCCN)NC(=O)[C@H](Cc1ccc(O)cc1)NC(=O)[C@H](CCCCN)NC(=O)CCC(=O)O)C(=O)N[C@@H](CCCNC(=N)N)C(=O)N[C@@H](Cc1ccc(O)cc1)C(N)=O (Suc-KYR([CO-NH(CH2)4NH2])LRY-NH2) ? 7.1
